# method_notes: P. aeruginosa biofilm formation inhibitors, primary screen, PAO1 strain, BacTiter-Glo luminescence, LB-PBS (AID 1144)
# protocol_conditions: 12 h, higher = more signal
Exercise: state measured z-score for each of the compounds provided.
Numbers only.

// for each compound below, give its z-score
1. COc1ccc([Si](C)(C)[C@H]2[C@H](CCO)O[C@@]3(C(=O)N(Cc4ccc(N5C(=O)c6ccccc6Oc6ccccc65)cc4)c4ccccc43)[C@@H]2C)cc1
2. NC(=O)[C@H]1[C@@H]2C(=O)O[C@@H](c3ccccc3)[C@@H](c3ccccc3)N2[C@@H](c2ccc(O)cc2)[C@]12C(=O)Nc1ccccc12
3. CC(C)C[C@@H]1NC(=O)[C@@]23C(=O)N[C@@H](Cc4ccccc4)C2[C@H](C)[C@@]2(C)O[C@H]2C3/C=C/C/C=C\CNC(=O)[C@@H](C)NC1=O (some centres undefined)
4. CCOC(=O)C1=CCC(c2ccccc2)N(S(=O)(=O)c2ccc([N+](=O)[O-])cc2)C1 (centres undefined)

Result:
[-1.75, 0.191, -0.944, 0.697]
